# tested.on: Farnesyl pyrophosphate synthase (Homo sapiens, UniProt P14324)
# Sequence (P14324 whole entry): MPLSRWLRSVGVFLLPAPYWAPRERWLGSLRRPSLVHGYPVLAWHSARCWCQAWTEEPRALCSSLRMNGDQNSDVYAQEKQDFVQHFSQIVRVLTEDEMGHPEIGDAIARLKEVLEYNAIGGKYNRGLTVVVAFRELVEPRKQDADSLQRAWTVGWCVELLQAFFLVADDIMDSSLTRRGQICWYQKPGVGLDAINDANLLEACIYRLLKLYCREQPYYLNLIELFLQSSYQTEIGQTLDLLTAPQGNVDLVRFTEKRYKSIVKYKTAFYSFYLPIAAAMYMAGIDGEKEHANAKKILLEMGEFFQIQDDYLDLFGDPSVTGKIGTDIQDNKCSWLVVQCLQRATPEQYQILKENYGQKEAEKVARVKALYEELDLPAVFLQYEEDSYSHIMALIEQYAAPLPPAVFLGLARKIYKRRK
pIC50: −log10 of the molar value.
The label depends only on pIC50: MET if it is at least 6, NOT MET if it is smaller.

See these solved cases before continuing.
molecule: Cc1cccnc1NC(P(C)(=O)O)P(C)(=O)O (stereo not drawn)
discrete.label: NOT MET

molecule: O=P(O)(O)C(O)(Cc1ccccn1)P(=O)(O)O
discrete.label: MET

molecule: Cc1cccnc1NC(P(C)(=O)O)P(=O)(O)O (stereo not drawn)
discrete.label: NOT MET

molecule: Nc1ccccc1CC(O)(P(=O)(O)O)P(=O)(O)O
discrete.label: MET

molecule: CC1CCCN=C1NC(P(=O)(O)O)P(=O)(O)O (stereo not drawn)
discrete.label: MET

Req: Does pIC50 meet or surpass 6 for O=P(O)(O)OP(=O)(O)O ?
Resp: NOT MET

Req: Record O=C(O)C(O)(Cc1cccnc1)P(=O)(O)O (stereo not drawn) ; criterion: pIC50 no lower than 6. Met?
Resp: NOT MET

----------
Consider compounds characterized by their pIC50 with Farnesyl pyrophosphate synthase (Homo sapiens, UniProt P14324).
Numbers only, as −log10 of the molar value.

Reference set, count: 3
compound: O=P(O)(O)C(O)(CC1CCCCN1)P(=O)(O)O (stereo unspecified)
value: 6.23
--
compound: O=P(O)(O)C(Cc1cccnc1)P(=O)(O)O
value: 6.76
--
compound: NCCCCC(O)(P(=O)(O)O)P(=O)(O)O
value: 5.97

Kindly give each listed record's pIC50.
1. O=P(O)(O)C(CC1CCCCN1)P(=O)(O)O (stereo unspecified)
2. C[n+]1cccc(CC(O)(P(=O)(O)O)P(=O)(O)O)c1
3. O=P(O)(O)C(Cc1ccccn1)P(=O)(O)O

Resp:
[6.06, 5.77, 6.59]

----------
pIC50 data for Farnesyl pyrophosphate synthase (Homo sapiens) follow.
Give bare numbers, as −log10 of the molar value.

In the examples that follow, each entry is paired with its recorded pIC50.
compound: O=P(O)(O)C(O)(Cc1ccccn1)P(=O)(O)O
pIC50: 8.04
--
compound: Nc1ccccc1CC(O)(P(=O)(O)O)P(=O)(O)O
pIC50: 7.67
--
compound: O=P(O)(O)OP(=O)(O)O
pIC50: 3.74

For every record below, what is its pIC50?
1. O=P(O)(O)C(CC1CCCCN1)P(=O)(O)O (centres undefined)
2. Cc1cccnc1NC(P(C)(=O)O)P(C)(=O)O (centres undefined)
3. O=P(O)(O)C(Cc1ccccn1)P(=O)(O)O
4. Cc1cccnc1NCC(P(=O)(O)O)P(=O)(O)O
5. Cc1cccnc1NC(P(C)(=O)O)P(=O)(O)O (centres undefined)

Resp:
7.62
3.48
7.52
6.13
7.21

Provide reported pIC50 for each item, in the same order as listed.
1. C[n+]1cccc(CC(O)(P(=O)(O)O)P(=O)(O)O)c1
2. O=P(O)(O)C(Cc1cccnc1)P(=O)(O)O

Resp:
7.71
7.49

Each compound below has a reported value. Please supply its pIC50.
1. O=P(O)(O)C(O)(CC1CCCCN1)P(=O)(O)O (centres undefined)
2. CC1CCCN=C1NC(P(=O)(O)O)P(=O)(O)O (centres undefined)
3. O=P(O)(O)CCc1cccnc1

Resp:
7.86
7.99
3.08

Per the records, this compound ( NCCCCC(O)(P(=O)(O)O)P(=O)(O)O ) has pIC50 equal to 6.53

All values here come from ChEMBL document CHEMBL1142396.
